Target: Polyunsaturated fatty acid 5-lipoxygenase (Homo sapiens, UniProt P09917)
Sequence (P09917 whole entry): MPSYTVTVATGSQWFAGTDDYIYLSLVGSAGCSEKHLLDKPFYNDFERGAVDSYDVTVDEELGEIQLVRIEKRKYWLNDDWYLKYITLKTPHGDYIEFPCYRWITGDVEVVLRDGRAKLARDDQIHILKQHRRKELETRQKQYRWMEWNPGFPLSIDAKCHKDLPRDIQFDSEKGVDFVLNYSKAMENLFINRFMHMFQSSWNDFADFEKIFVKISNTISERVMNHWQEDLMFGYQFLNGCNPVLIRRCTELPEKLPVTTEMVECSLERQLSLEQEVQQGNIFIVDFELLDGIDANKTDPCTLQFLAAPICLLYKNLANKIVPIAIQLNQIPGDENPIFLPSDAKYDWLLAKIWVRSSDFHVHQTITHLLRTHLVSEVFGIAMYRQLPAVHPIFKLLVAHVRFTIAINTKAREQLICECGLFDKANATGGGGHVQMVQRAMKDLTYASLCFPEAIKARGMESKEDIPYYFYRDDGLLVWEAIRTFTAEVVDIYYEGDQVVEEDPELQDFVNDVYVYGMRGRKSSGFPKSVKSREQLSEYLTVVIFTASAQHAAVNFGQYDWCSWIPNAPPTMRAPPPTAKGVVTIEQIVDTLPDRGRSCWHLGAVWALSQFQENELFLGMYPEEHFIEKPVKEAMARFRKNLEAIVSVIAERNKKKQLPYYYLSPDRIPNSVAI
Test: Inhibition of 5-LO in human PMNL assessed as reduction in 5-LO product formation pre-incubated for 15 mins before addition of arachidonic acid substrate by HPLC analysis
Settings: read-out: IC50
What log10 IC50 was measured for each of the following?
For clarity, the numbers are log10 values of IC50 expressed in nM.

CCCC/C(=C\c1cc(OCc2cc(C(F)(F)F)cc(C(F)(F)F)c2)ccc1OCc1ccc(C(F)(F)F)cc1)C(=O)O    2.48
CCCC/C(=C\c1cc(OCC2CCC(C(F)(F)F)CC2)ccc1OCc1ccc(C(F)(F)F)cc1)C(=O)O (stereo not drawn)    3.23

Return reported log10 IC50 values for all items listed beneath this line.
1. CCCC/C(=C\c1cc(OCc2cccnc2)ccc1OCc1ccc(C(F)(F)F)cc1)C(=O)O
2. CCCC/C(=C\c1cc(OCc2csc(-c3ccc(C(F)(F)F)cc3)n2)ccc1OCc1ccc(C(F)(F)F)cc1)C(=O)O
3. CCCC/C(=C\c1cc(OCc2ccc(-c3csc(C)n3)cc2)ccc1OCc1ccc(C(F)(F)F)cc1)C(=O)O

3.36
2.95
3.83

Please state, for each entry, its recorded log10 IC50.
1. CCCC/C(=C\c1cc(OCc2cc3ccccc3s2)ccc1OCc1ccc(C(F)(F)F)cc1)C(=O)O
2. CCCC/C(=C\c1cc(OC/C=C/c2ccccc2)ccc1OCc1ccc(C(F)(F)F)cc1)C(=O)O
3. CCCC/C(=C\c1cc(OCc2ccc3nc(C(F)(F)F)cc(OC)c3c2)ccc1OCc1ccc(C(F)(F)F)cc1)C(=O)O

1. 2.85
2. 2.88
3. 2.30
